This collection of values is drawn from patent US20220133913A1.

biological target: T1, human αvβ3 integrin ITGAVB3 (human, UniProt P06756 31-992; P05106 27-718, limits assumed); test: ELISA of soluble VHH, induced at 30 C; coating not given
T1 construct: Recombinant heterodimer used as immunogen, ELISA coating and SPR ligand; also called A5B3; A5b3
T1 sequence (P06756 31-992 limits assumed, chain 1 of 2): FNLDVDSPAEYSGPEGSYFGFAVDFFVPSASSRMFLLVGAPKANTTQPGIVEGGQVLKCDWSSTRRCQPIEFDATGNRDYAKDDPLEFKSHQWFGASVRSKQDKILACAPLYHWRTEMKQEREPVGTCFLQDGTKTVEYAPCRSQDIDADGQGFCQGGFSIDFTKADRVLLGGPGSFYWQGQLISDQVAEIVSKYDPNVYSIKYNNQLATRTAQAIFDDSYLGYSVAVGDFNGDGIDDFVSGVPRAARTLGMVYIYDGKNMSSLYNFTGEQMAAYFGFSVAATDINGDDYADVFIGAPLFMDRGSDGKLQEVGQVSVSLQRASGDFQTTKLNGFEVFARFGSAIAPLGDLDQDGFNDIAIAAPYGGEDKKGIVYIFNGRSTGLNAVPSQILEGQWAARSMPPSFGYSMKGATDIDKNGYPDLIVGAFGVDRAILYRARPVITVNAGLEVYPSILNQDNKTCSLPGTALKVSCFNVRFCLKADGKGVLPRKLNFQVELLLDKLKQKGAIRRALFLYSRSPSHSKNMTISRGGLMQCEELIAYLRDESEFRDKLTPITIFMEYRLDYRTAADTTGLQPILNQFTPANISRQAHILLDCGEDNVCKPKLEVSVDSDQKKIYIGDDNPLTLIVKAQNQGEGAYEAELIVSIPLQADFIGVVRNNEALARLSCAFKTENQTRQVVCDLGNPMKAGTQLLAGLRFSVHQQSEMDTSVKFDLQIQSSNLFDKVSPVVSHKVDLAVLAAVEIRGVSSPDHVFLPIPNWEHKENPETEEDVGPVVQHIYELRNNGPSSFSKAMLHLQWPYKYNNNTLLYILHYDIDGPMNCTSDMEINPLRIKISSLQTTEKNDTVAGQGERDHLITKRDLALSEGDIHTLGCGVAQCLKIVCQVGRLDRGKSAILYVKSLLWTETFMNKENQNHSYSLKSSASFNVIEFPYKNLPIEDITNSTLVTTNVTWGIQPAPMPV
T1 sequence (P05106 27-718 limits assumed, chain 2 of 2): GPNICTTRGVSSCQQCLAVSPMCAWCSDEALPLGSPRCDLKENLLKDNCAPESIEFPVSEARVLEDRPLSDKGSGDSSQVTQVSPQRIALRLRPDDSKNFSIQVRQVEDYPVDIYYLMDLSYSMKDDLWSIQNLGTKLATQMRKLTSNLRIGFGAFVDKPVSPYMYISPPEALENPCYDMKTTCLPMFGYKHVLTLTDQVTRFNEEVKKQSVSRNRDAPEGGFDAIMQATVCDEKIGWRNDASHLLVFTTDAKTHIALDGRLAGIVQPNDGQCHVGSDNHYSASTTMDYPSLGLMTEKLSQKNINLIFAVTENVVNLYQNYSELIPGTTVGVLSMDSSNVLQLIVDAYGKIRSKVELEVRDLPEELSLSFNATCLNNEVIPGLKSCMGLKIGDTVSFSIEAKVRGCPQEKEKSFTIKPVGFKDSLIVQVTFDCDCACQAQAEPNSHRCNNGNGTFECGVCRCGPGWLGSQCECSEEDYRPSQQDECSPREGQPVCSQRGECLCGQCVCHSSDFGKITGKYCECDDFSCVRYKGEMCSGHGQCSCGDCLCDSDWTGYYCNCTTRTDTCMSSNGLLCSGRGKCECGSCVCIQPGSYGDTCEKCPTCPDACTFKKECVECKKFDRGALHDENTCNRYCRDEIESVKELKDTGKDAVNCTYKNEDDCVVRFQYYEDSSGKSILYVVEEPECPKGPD
recorded endpoint: OD490
# answer = number (no unit)

Solved cases (5 shown):
VHH-12 (VHH, also called clone 12) VHH: EVQLVESGGGSVQPGESLRLSCVASGYTVSSSCMAWFRQAPGKEREVVATIVVTSDTTSTFYADSVKGRFTISPDNAKNTLNLQMNSLEPSDTAMYYCAADRKWNVCSRGYRYTPNWANQFTFWGQGTQVTVSS = 1.84
VHH-13 (VHH, also called clone 13) VHH: HVQLVESGGGSVQPGESLRLSCVASGYTVSSSCMAWFRQAPGKEREVVATIVVTSDTTSTFYADSVKGRFTISPDNAKNTLNLQMNSLEPSDTAMYYCAADRKWNVCSRGYRYTPNWANQFTFWGQGTQVTVSS = 0.161
VHH-25 (VHH, also called clone 25) VHH: EVQLVESGGGSVQAGGSLRLSCVVSGYTCSVYDMIWYRQPPGKEREFVSLINSNGRTTYADSVKGRFTISQNNAKNTVYLQMNSLKPEDTAMYYCHAACYSPSRLNYWGQGTQVTVSS = 1.05
VHH-20 (VHH, also called clone 20) VHH: DVQLVESGGGSVQPGGSLRLSCAASGYTVDNSCMAWFRQAPGKEREVVATIVTNNATSTFYADSVKGRFTVSHDNAKNTLNLQMNTLEPEDTAMYYCAADTKWIVCSRGYRYTPNWANHFNYWGQGTLVTVSS = 0.108
VHH-11 (VHH, also called clone 11) VHH: DVQLVESGGGSVQPGESLRLSCVASGYTVSSSCMAWFRQAPGKEREVVATIVVTSDTTSTFYADSVKGRFTISPDNAKNTLNLQMNSLEPSDTAMYYCAADRKWNVCSRGYRYTPNWANQFTFWGQGTLVTVSS = 0.148

# query: OD490 of entry VHH-15 (VHH, also called clone 15) VHH: EVQLVESGGGSVQPGESLRLSCVASGYTVSSSCMAWFRQAPGKEREVVATIVVTSDTTSTFYADSVKGRFTISPDNAKNTLNLQMNSLEPPDTAMYYCAADRKWNVCSRGYRYTPNWANQFTFWGQGTQVTVSS 0.146

# OD490 lookup, item VHH-17 (VHH, also called clone 17) VHH: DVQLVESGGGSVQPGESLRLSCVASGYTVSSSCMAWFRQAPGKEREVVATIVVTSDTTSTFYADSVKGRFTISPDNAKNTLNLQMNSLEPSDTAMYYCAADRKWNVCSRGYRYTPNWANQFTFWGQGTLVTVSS 0.118
